system: HepG2; details: CC50 HepG2 (µM)
Bridge positions count the residues as written; N and C are the ends. Square brackets hold non-standard residues; d marks the D form. Peptide text beside a SMILES is read from it. * marks the point of attachment. Benzoyl(4-Ph) = O=C(c1ccc(-c2ccccc2)cc1)*; Dab = NCC[C@H](N)C(=O)O
observation-type: CC50 (µM)
Record the value in µM, omitting the unit from your answer.

GET /values?item= CC(C)C[C@@H]1NC(=O)[C@@H](Cc2ccccc2)NC(=O)[C@H](CCN)NC(=O)[C@@H](NC(=O)[C@H](CCN)NC(=O)[C@@H](NC(=O)[C@H](CCN)NC(=O)c2ccc(-c3ccccc3)cc2)[C@@H](C)O)CCNC(=O)[C@H]([C@@H](C)O)NC(=O)[C@H](CCN)NC(=O)[C@H](CCN)NC1=O [Compound 10] ({Benzoyl(4-Ph)}-[Dab]T[Dab][Dab][Dab][dF]L[Dab][Dab]T; lactam 4-C) &system= HepG2 returns CC50: 298
